Assay: Pharmacokinetics and oral bioavailability of D8.3.p1 and D10.1 in Balb/C female mice (PO, SQ, IV)
Format: in vivo
Conditions: female, Balb/C, mouse, in vivo, iv, 1 mg/kg, Plasma level
Where a SMILES comes first, the peptide text is derived from it. [ ]: non-standard residue; d: D form. dNMeL = CN[C@H](CC(C)C)C(=O)O

compound: CC[C@@H](C)[C@H]1NC(=O)[C@@H](CC(C)C)NC(=O)[C@@H](CC(C)C)N(C)C(=O)[C@@H]2CCCN2C(=O)[C@@H](C(C)C)NC(=O)[C@H](CC(C)C)NC(=O)[C@@H](CC(C)C)N(C)C(=O)[C@@H]2CCCN2C1=O [Design D8.3.p1, DLEU DVAL PRO *DLEU DLEU DILE PRO *DLEU] (cyclo(L[dV]P[dNMeL][dL][dI]P[dNMeL]))
level at time molar at 0.5 h: 190 nM

###

Conditions: PAMPA
Where a SMILES comes first, the peptide text is derived from it. [ ]: non-standard residue; d: D form. NMeF = CN[C@@H](Cc1ccccc1)C(=O)O; dNMeF = CN[C@H](Cc1ccccc1)C(=O)O; NMeL = CN[C@@H](CC(C)C)C(=O)O; dNMeL = CN[C@H](CC(C)C)C(=O)O; NMeA = CN[C@@H](C)C(=O)O; Nle = CCCC[C@H](N)C(=O)O; Sar = CNCC(=O)O

compound: CC(C)C[C@@H]1NC(=O)[C@H](CC(C)C)NC(=O)[C@H](C(C)C)NC(=O)[C@H](C)NC(=O)[C@@H]2CCCN2C(=O)[C@H]2CCCN2C(=O)[C@@H]2CCCN2C(=O)[C@H](C)N(C)C(=O)[C@@H](CC(C)C)N(C)C(=O)[C@@H]2CCCN2C(=O)[C@H](Cc2ccccc2)NC1=O [Design D11.7] (cyclo(AVLLFP[dNMeL][NMeA]P[dP]P))
PAMPA_R1: BQL
--
compound: CC(C)C[C@@H]1NC(=O)[C@H](CC(C)C)N(C)C(=O)[C@@H](Cc2ccccc2)N(C)C(=O)[C@H](Cc2ccccc2)NC(=O)[C@@H]2CCCN2C(=O)[C@@H](C)NC(=O)[C@@H]2CCCN2C(=O)[C@H](CC(C)C)N(C)C(=O)[C@H](CC(C)C)N(C)C(=O)[C@@H](C(C)C)NC1=O [Design D10.13] (cyclo(F[dNMeF][NMeL]L[dV][NMeL][NMeL]P[dA]P))
PAMPA_R1: BQL
--
compound: CCCC[C@@H]1NC(=O)[C@H]2CCCN2C(=O)[C@H](C(C)C)NC(=O)[C@@H](CC(C)C)N(C)C(=O)[C@H](Cc2ccccc2)NC(=O)[C@H](CC(C)C)NC(=O)[C@@H](CC(C)C)N(C)C(=O)[C@@H]2CCCN2C(=O)[C@@H](CC(C)C)NC1=O [Design D9.40] (cyclo(F[dNMeL]V[dP][Nle][dL]P[dNMeL]L))
PAMPA_R1: 4.18E-07
--
compound: CC[C@@H](C)[C@H]1NC(=O)[C@H](Cc2ccccc2)N(C)C(=O)[C@@H](CC(C)C)N(C)C(=O)[C@H](C(C)C)NC(=O)[C@H](C)NC(=O)[C@@H]2CCCN2C(=O)[C@H](CC(C)C)N(C)C(=O)[C@@H](Cc2ccccc2)N(C)C(=O)[C@H](C)N(C)C(=O)[C@H](C)N(C)C1=O [Design D10.56] (cyclo(AV[dNMeL][NMeF][dI][NMeA][NMeA][dNMeF][NMeL]P))
PAMPA_R1: 9.15E-06
--
compound: CC[C@@H](C)[C@H]1NC(=O)[C@@H](CC(C)C)N(C)C(=O)[C@@H]2CCCN2C(=O)[C@@H]([C@H](C)CC)NC(=O)[C@@H](CC(C)C)NC(=O)[C@@H](CC(C)C)N(C)C(=O)[C@@H]2CCCN2C(=O)[C@@H](C(C)C)NC1=O [Design D8.8, PRO *DLEU DLEU DILE PRO *DLEU DILE DVAL] (cyclo(P[dNMeL][dI][dV]P[dNMeL][dL][dI]))
PAMPA_R1: 9.54E-06
--
compound: CC(C)C[C@@H]1C(=O)N[C@H](CC(C)C)C(=O)N2CCC[C@@H]2C(=O)N2CCC[C@@H]2C(=O)N(C)[C@@H](C)C(=O)N[C@H](Cc2ccccc2)C(=O)N[C@@H](C)C(=O)N(C)[C@@H](CC(C)C)C(=O)N1C [Design D8.10, DPRO DPRO *ALA DPHE ALA *LEU *DLEU DLEU] (cyclo(A[NMeL][dNMeL][dL][dP][dP][NMeA][dF]))
PAMPA_R1: 8.77E-07
--
compound: CC[C@H](C)[C@@H]1NC(=O)[C@@H]2CCCN2C(=O)CN(C)C(=O)[C@@H](CC(C)C)NC(=O)[C@@H](CC(C)C)N(C)C(=O)[C@@H]2CCCN2C(=O)[C@H](Cc2ccccc2)N(C)C(=O)[C@@H](Cc2ccccc2)NC1=O [Design D8.15, PRO ILE DPHE*PHE PRO *DLEU DLEU *GLY] (cyclo(I[dF][NMeF]P[dNMeL][dL][Sar]P))
PAMPA_R1: 8.94E-07
--
compound: CC[C@H](C)[C@@H]1NC(=O)[C@@H](CC(C)C)NC(=O)[C@H](CC(C)C)NC(=O)[C@H]2CCCN2C(=O)[C@@H]2CCCN2C(=O)[C@H](C)NC(=O)[C@H](Cc2ccccc2)N(C)C(=O)[C@@H](C(C)C)NC(=O)[C@H](Cc2ccccc2)N(C)C(=O)[C@@H](Cc2ccccc2)N(C)C1=O [Design D10.51] (cyclo(AP[dP]L[dL]I[dNMeF][NMeF][dV][NMeF]))
PAMPA_R1: BQL
--
compound: CC(C)C[C@@H]1NC(=O)[C@@H]2CCCN2C(=O)[C@H]2CCCN2C(=O)[C@H](CC(C)C)NC(=O)[C@H](C)N(C)C(=O)[C@H]2CCCN2C(=O)[C@@H](CC(C)C)NC1=O [Design D7.6, DLEU DPRO *ALA LEU DPRO PRO LEU] (cyclo(L[dL][dP][NMeA]L[dP]P))
PAMPA_R1: 2.16e-06 cm/s
--
compound: CC(C)C[C@@H]1NC(=O)[C@@H](Cc2ccccc2)NC(=O)[C@@H](CC(C)C)N(C)C(=O)[C@@H]2CCCN2C(=O)[C@H](C)NC(=O)[C@@H](CC(C)C)N(C)C(=O)[C@@H]2CCCN2C(=O)[C@H](CC(C)C)N(C)C(=O)[C@H](CC(C)C)N(C)C(=O)[C@H](C(C)C)NC1=O [Design D10.20] (cyclo(AP[dNMeL][dF]LV[NMeL][NMeL]P[dNMeL]))
PAMPA_R1: 1.95E-06
--
compound: CC[C@@H](C)[C@H]1NC(=O)[C@@H]2CCCN2C(=O)[C@H](CC(C)C)NC(=O)[C@@H](CC(C)C)NC(=O)[C@@H](Cc2ccccc2)NC(=O)[C@@H](Cc2ccccc2)NC(=O)[C@@H](C)NC(=O)[C@H]2CCCN2C(=O)[C@@H]2CCCN2C(=O)[C@@H](C(C)C)NC(=O)[C@@H]2CCCN2C(=O)[C@H]2CCCN2C1=O [Design D12.9] (cyclo([dV]P[dP][dA][dF][dF][dL]LP[dI][dP]P))
PAMPA_R1: BQL

Ref: paper PMC9490236
